System: M14
test.protocol: NCI tumour cell line growth inhibition, 48 h
The source made the active and inactive calls. Rule as the data show it: active = GI50 up to about 1.1 µM and inactive = higher.
measurement.name: GI50

Worked cases, GI50 given:
INSERT INTO assay_data (compound, experimental_value) VALUES
  ('CC1=NN(c2ccccc2)C(=O)/C1=C1\SC(c2ccccc2)(c2ccccc2)c2ccccc21', '> 100 µM (inactive)'),
  ('O=C(Nc1c(O)[nH]c(=S)[nH]c1=O)c1ccco1', '> 100 µM (inactive)'),
  ('O=S(=O)(O)c1ccc2c(/N=N\c3cccc4ccccc34)c(O)c(S(=O)(=O)O)cc2c1', '> 100 µM (inactive)'),
  ('Cc1cn(C2CCN(CC3COC(C)(C)O3)O2)c(=O)[nH]c1=O (stereo not given)', '> 100 µM (inactive)');

What does the record list as GI50 for CC(=O)O[C@H]1C[C@]2(C)C(CCC3O[C@@]32C)[C@@]2(CC(c3ccoc3)OC2O)[C@@H]1C (stereo not given in full) ?
> 100 µM (inactive)

Also CCOC(=O)c1cc2cc([N+](=O)[O-])ccc2oc1=O ?
> 100 µM (inactive)

Also Cc1ccc(S(=O)(=O)OCC23CCC(C2)C2CC23)cc1 (stereo not given) ?
> 100 µM (inactive)

Also CNC(=O)N1CN(c2ccccc2)C2(CCN(CCCC3(c4ccc(F)cc4)OCCO3)CC2)C1=O ?
> 100 µM (inactive)

Also COc1ccc2c(c1)-c1c(c3cc(OC)ccc3n1CCN1CCOCC1)CC2 ?
15.8 µM (inactive)

Also CCOC(=O)c1nc2cc(C(F)(F)F)ccc2nc1Nc1ccc(C(=O)OC)s1 ?
37.6 µM (inactive)

---

Tested on: DMS-114
test.protocol: NCI tumour cell line growth inhibition, 48 h
Active and inactive are the calls of the source. Cut-off read from the data, not from the text of the source: active = GI50 up to about 1.1 µM and inactive = higher.
measurement.name: GI50

Worked cases, GI50 given:
INSERT INTO measurements (compound, experimental_value) VALUES
  ('COC(=O)CC[C@]12C[C@]13CC[C@]1(C)C4C(C)C[C@]5(CC(C)C(=O)O5)OC4CC1(C)C3CCC2C(C)(C)O (stereo partly specified)', '59.7 µM (inactive)'),
  ('COc1cc2c(cc1OC)C(Cc1cc(Br)c(OC)c(OC)c1)=[N+](C)CC2', '2.52 µM (inactive)'),
  ('CC1(C)C2CCC13C(=O)C1OC3(C2)C2C(=O)N(c3ccccc3)C(=O)C12 (stereo unspecified)', '> 100 µM (inactive)'),
  ('CN(C)C(=O)c1ccc([N+](=O)[O-])cc1', '> 100 µM (inactive)'),
  ('C/C=C(/CCC1NCCC2c3ccccc3NC12)[Si](C)(C)C (stereo unspecified)', '4.53 µM (inactive)');

What does the record list as GI50 for O=C(NNC(=O)/C(=C/c1cccc([N+](=O)[O-])c1)NC(=O)c1ccccc1)Nc1ccc(Cl)cc1 ?
11.5 µM (inactive)

Also C[C@]12CCC(=O)C[C@H]1CCC(O)[C@@H]2Br (stereo partly specified) ?
> 100 µM (inactive)

Also N=C(c1ccccc1)N1CCCCC1 ?
> 100 µM (inactive)

Also [O-][Cl+3]([O-])([O-])[O-].c1ccc(C[P+]2(c3ccccc3)CCCCC2)cc1 ?
48.5 µM (inactive)

Also CCCCCCCCCCCCCCCCNCC(O)CN (stereo unspecified) ?
5.69 µM (inactive)

Also Nc1nc2c3c(ncn3CC(O)CO2)n1 (stereo unspecified) ?
> 100 µM (inactive)

---

Tested on: OVCAR-5
test.protocol: NCI tumour cell line growth inhibition, 48 h
Activity calls are given as the source filed them. Rule as the data show it: active = GI50 up to about 1.1 µM and inactive = higher.
measurement.name: GI50

Worked cases, GI50 given:
INSERT INTO assay_data (molecule, measurement_name, experimental_value) VALUES
  ('O/N=C1/CCC/C1=C\c1ccccc1', 'GI50', '67.5 µM (inactive)'),
  ('COc1cc2nc(NCCCCCNC(=O)c3ccco3)nc(N)c2cc1OC', 'GI50', '38.3 µM (inactive)'),
  ('Cc1csc2nc(-c3cc([N+](=O)[O-])c(Cl)cc3Cl)c(/C=N/N=C(N)N)n12', 'GI50', '17.4 µM (inactive)'),
  ('OC1c2c(ccc3c2CCC3)CC12Cc1ccccc1C2 (configuration not stated)', 'GI50', '17.2 µM (inactive)'),
  ('CO/C(=N\N=C\c1ccc(C(F)(F)F)cc1)c1ccncc1', 'GI50', '> 10 µM (inactive)'),
  ('COc1cc(Nc2cnc3ccc(N)cc3n2)cc(OC)c1OC', 'GI50', '> 100 µM (inactive)');

What does the record list as GI50 for COc1ccc(N2C(=O)C(=O)C3(CCCCC3)C2=O)c(OC)c1OC ?
> 100 µM (inactive)

---

Below, each entry is listed alongside its reported GI50.
System: HCT-116
test.protocol: NCI tumour cell line growth inhibition, 48 h
Calls of active or inactive are those of the source. Cut-off read from the data, not from the text of the source: active = GI50 up to about 1.1 µM and inactive = higher.

Worked cases, GI50 given:
INSERT INTO measurements (compound, experimental_value) VALUES
  ('CC(=O)Nc1ccc2nncnc2c1', '> 100 µM (inactive)'),
  ('CCOC(=O)c1nc2cc(C(F)(F)F)ccc2nc1Nc1ccc(C(=O)OC)s1', '35.3 µM (inactive)'),
  ('Cc1c(C#N)c2nnn(-c3cccc(Cl)c3)c(=O)n2c1-c1ccccc1', '2.03 µM (inactive)');

What does the record list as GI50 for Cn1c(=O)c(/N=N/c2c(=O)n(C)c(=O)n3c2[nH]c2ccccc23)c2[nH]c3ccccc3n2c1=O ?
6.95 µM (inactive)

Also O=C(NNC(=O)c1ccco1)c1ccco1 ?
> 100 µM (inactive)

Also CCOC(=N)/C(=C1\OC(=N)C(c2ccc(Cl)cc2)=C1O)c1ccc(Cl)cc1 ?
16.9 µM (inactive)

Also O/N=C1/CCC/C1=C\c1ccccc1 ?
> 100 µM (inactive)

Also CCC(CON(C)c1ccccc1)(SC)SC ?
> 100 µM (inactive)

---

Tested on: SK-MEL-5
test.protocol: NCI tumour cell line growth inhibition, 48 h
Activity calls are given as the source filed them. Rule as the data show it: active = GI50 up to about 1.1 µM and inactive = higher.
measurement.name: GI50

INSERT INTO results (compound, experimental_value) VALUES
  ('c1ccc2c(c1)SCCCS2', '> 100 µM (inactive)'),
  ('COc1cc(C2S/C(=C/c3ccccc3)C(=O)N2c2cccc(NC(C)=O)c2)cc(OC)c1OC (stereo not given)', '35.2 µM (inactive)'),
  ('Cc1nc(N2N=C(c3ccc(Cl)cc3)CCC2=O)sc1[N+](=O)[O-]', '> 100 µM (inactive)'),
  ('C/C=C(/CCC1NCCC2c3ccccc3NC12)[Si](C)(C)C (stereo not given)', '12.8 µM (inactive)'),
  ('C[C@]12CC[C@H]3[C@@H](CC=C4C[C@@H](N5CCCC5)CC[C@@]43C)[C@@H]1C[C@H](N1CCOCC1)[C@@H]2O', '> 100 µM (inactive)'),
  ('NS(=O)(=O)c1ccc(NC(=O)c2cccn3c(=O)c4ccccc4nc23)cc1', '> 100 µM (inactive)'),
  ('O=C(c1ccccc1)c1ccc2[nH]c(-c3c(Cl)c(Cl)c(Cl)c(Cl)c3C(=O)N/N=C/c3ccccc3)nc2c1', '14.5 µM (inactive)'),
  ('C(/Cc1ccc2c(c1)OCO2)=N\N=C1NCCCN1', '25 µM (inactive)');

Notebook: pull reported GI50 for SK-MEL-5, entry Cc1ccc(SCC(CF)OCn2cc(F)c(=O)[nH]c2=O)cc1 (stereo not given)
> 100 µM (inactive)

Also CCOP(=O)(CC(=O)C1CC1)OCC ?
> 100 µM (inactive)

---

Below, each entry is listed alongside its reported GI50.
System: UO-31
test.protocol: NCI tumour cell line growth inhibition, 48 h
Activity calls are given as the source filed them. Cut-off read from the data, not from the text of the source: active = GI50 up to about 1.1 µM and inactive = higher.

Worked cases, GI50 given:
INSERT INTO measurements (compound, experimental_value) VALUES
  ('Cc1cccc(C(O)c2ccccn2)c1O (stereo not given)', '> 100 µM (inactive)'),
  ('O=c1cc(NNc2cccc(F)c2)[nH]c(=S)[nH]1', '> 100 µM (inactive)'),
  ('COc1cc(O)c2c(c1)C(=O)c1cc3c(c(O)c1C2=O)C(OC1OC(C)C(O)C(O)C1OC)C(OC)C(C)(O)C3=O (stereo not given)', '2.09 µM (inactive)'),
  ('CC1(C)C2CCC13C(=O)C1OC3(C2)C2C(=O)N(c3ccccc3)C(=O)C12 (stereo not given)', '> 100 µM (inactive)'),
  ('c1cc2c(cc1NC1=NCCO1)OCO2', '> 100 µM (inactive)');

What does the record list as GI50 for N#C[BH2-][n+]1ccc(C(=O)NNCC(F)(F)F)cc1 ?
> 100 µM (inactive)

Also COC(=O)C(Cc1ccc2c(c1)CCCC2)Cc1cc2c(cc1C(O)OC)CCC2 (stereo not given) ?
93.8 µM (inactive)

Also COC(=O)CC[C@]12C[C@]13CC[C@]1(C)C4C(C)C[C@]5(CC(C)C(=O)O5)OC4CC1(C)C3CCC2C(C)(C)O (stereo not given in full) ?
59.2 µM (inactive)

Also OCC(Cn1cncn1)(c1ccc(F)cc1F)n1cncn1 (stereo not given) ?
> 100 µM (inactive)

Also CCOC(=O)c1nc2ccc(C(F)(F)F)cc2nc1NCc1ccc(OC)c(OC)c1 ?
60.7 µM (inactive)
